- System: stage 3 Spodoptera litura larvae
- assay.procedure: Spodoptera litura larvae test
- Assay type: in vivo
- particulars: active compound concentration 500 ppm, sweet potato leaf dip, after 7 days, mean of two dishes
assay.readout: kill of the insect larvae (%)
Hi! Could you send only the number? It should be in %, unit omitted.

Previously resolved entries follow.
{"compound": "O=C(NCc1ccccn1)c1ccc(-n2cc(-c3cc(Cl)cc(Cl)c3)c(C(F)(F)F)n2)cc1[N+](=O)[O-] [I-A-Q2-003]", "u": "%", "kill of the insect larvae": 100}
{"compound": "O=C(NCC(F)(F)F)c1ccc(-n2cc(-c3cc(C(F)(F)F)cc(C(F)(F)F)c3)c(C(F)(F)F)n2)cc1C(F)(F)F [I-A-Q2-010]", "u": "%", "kill of the insect larvae": 100}
{"compound": "O=C(NCc1ccccn1)c1ccc(-n2cc(-c3cc(Cl)cc(Cl)c3)c(C(F)(F)F)n2)cc1C(F)(F)F [I-A-Q2-001]", "u": "%", "kill of the insect larvae": 100}
{"compound": "CCOC(=O)c1ccc(-n2cc(-c3cc(Cl)cc(Cl)c3)c(C(F)(F)F)n2)cc1C(F)(F)F [I-A-Q4-001]", "u": "%", "kill of the insect larvae": 80}
{"compound": "O=[N+]([O-])c1ccc(-n2cc(-c3cc(Cl)cc(Cl)c3)c(C(F)(F)F)n2)cc1C(F)(F)F [I-A-Q4-006]", "u": "%", "kill of the insect larvae": 80}
{"compound": "O=C(NCC(F)(F)F)c1ccc(-n2cc(-c3cc(Cl)cc(Cl)c3)c(C(F)(F)F)n2)cc1C(F)(F)F [I-A-Q2-002]", "u": "%", "kill of the insect larvae": 100}

Query string: I would be grateful if you could share the reported kill of the insect larvae for CC(NC(=O)c1ccc(-n2cc(-c3cc(Cl)cc(Cl)c3)c(C(F)(F)F)n2)cc1C(F)(F)F)C(F)(F)F (centres unmarked) [I-A-Q2-005] .
Result string: 100

Query string: Now try CC(NC(=O)c1ccc(-n2cc(-c3cc(Cl)cc(Cl)c3)cn2)cc1C(F)(F)F)C(F)(F)F (centres unmarked) [I-A-Q2-006] .
Result string: 100

---

- assay.procedure: log P by HPLC on a reversed-phase column (C18), EEC Directive 79/831 Annex V.A8
- Type: physicochemical
- particulars: pH 2; read-out: log P (pH 2)
assay.readout: chromatographic logP
# print the numeric value only

Query string: I would be grateful if you could share the reported chromatographic logP for `O=C(NCC(F)(F)F)c1ccc(-n2cc(-c3cc(Cl)cc(Cl)c3)c(C(F)(F)F)n2)cc1C(F)(F)F` .
Result string: 5.16
